target_of_assay: human CaMKIIδ (Homo sapiens, UniProt Q13557)
Construct: Full-length, glutathione-S-transferase(GST)-tagged, human CaMKIIδ was purchased from Carna Biosciences; purchased Carna Biosciences (CaMKIIδ); Wako Pure Chemical Industries (calmodulin) 02-111
method_description: Evaluation of in vitro CaMKII inhibitory activity (binding assay, TR-FRET)
condition_description: human CaMKIIδ, TR-FRET binding assay; class symbols A/B/C; read-out: Act (CaMKII inhibitory activity, binding assay)
experimental_endpoint: IC50

I would be grateful if you could share the reported IC50 for C[C@@H](Cn1cnnn1)Oc1cc(-c2ccc3ncn(-c4cccc(C(=O)O)c4C#N)c3n2)ccc1F .
10 to 100 nM

# input compound: CCN(CC)CCNC(=O)c1ccnc(-n2cnc3ccc(-c4ccc(F)c(O[C@@H](C)Cn5cnnn5)c4)nc32)c1 ; wanted: its IC50
< 10 nM

Quick check: IC50 of COc1ncc(C#N)cc1-c1cnc2ccc(-c3ccc(F)c(O[C@@H](C)Cn4cnnn4)c3)nn12 ?
< 10 nM

Would you mind telling me what IC50 value was observed for C[C@@H](Cn1cnnn1)Oc1cccc(-c2ccn3ncc(-c4cccc(C(=O)NC5CN(Cc6ccccc6)C5)c4)c3n2)c1 ?
< 10 nM

Requested read-out: IC50. Entry: COCCOc1ccc(-c2cnn3ccc(-c4ccc(F)c(O[C@@H](C)Cn5cnnn5)c4)nc23)cc1
10 to 100 nM

I have this compound here, C[C@@H](Cn1cnnn1)Oc1cccc(-c2ccn3ncc(-c4cccc(C(=O)N5CCC(O)CC5)c4)c3n2)c1 , and I need its recorded IC50.
10 to 100 nM

Please report the recorded IC50 for CC(=O)Nc1cccc(-c2cnn3ccc(-c4ccc(F)c(O[C@@H](C)Cn5cnnn5)c4)nc23)c1 .
< 10 nM

Name the recorded IC50 for C[C@@H](Cn1cnnn1)Oc1cc(-c2ccc3ncn(-c4cn[nH]c4)c3n2)ccc1F .
< 10 nM

Give the measured IC50 of C[C@@H](Cn1cnnn1)Oc1cc(-c2ccn3ncc(-c4ccn(CC#N)n4)c3n2)ccc1F .
< 10 nM

Need IC50, item COCCCn1ncc(-c2cnc3ccc(-c4ccc(F)c(O[C@@H](C)Cn5cnnn5)c4)nn23)c1C#N
< 10 nM

Requested read-out: IC50. Entry: C[C@@H](Cn1cnnn1)Oc1cccc(-c2ccn3ncc(-c4cccc(C(=O)NCc5cccnc5)c4)c3n2)c1
< 10 nM

Item under review: C[C@@H](Cn1cnnn1)Oc1cc(-c2ccn3ncc(-c4ccc(CN(C)C)cc4)c3n2)ccc1F . Reported IC50?
< 10 nM

What does the data say about its IC50? Entry: COCOc1cccc(-c2cnc3ccc(-c4ccc(F)c(O[C@@H](C)Cn5cnnn5)c4)nn23)c1C#N
< 10 nM

Reported IC50, compound COc1c(C(=O)NCCN2CCOCC2)cccc1-c1cnn2ccc(-c3ccc(F)c(O[C@@H](C)Cn4cnnn4)c3)nc12 : ____
< 10 nM

Consider the compound shown here: C[C@@H](Cn1cnnn1)Oc1cc(-c2ccn3ncc(-c4ccn(C)n4)c3n2)ccc1F What is its recorded IC50?
< 10 nM

Requested field: IC50. Item: C[C@@H](Cn1cnnn1)Oc1cc(-c2ccn3ncc(-c4ccc(C#N)s4)c3n2)ccc1F
< 10 nM

Need IC50 of COC1CN(C(=O)c2cccc(-n3cnc4ccc(-c5ccc(F)c(O[C@@H](C)Cn6cnnn6)c5)nc43)c2C#N)C1 , thanks.
10 to 100 nM

Give the measured IC50 of C[C@@H](Cn1cnnn1)Oc1cc(-c2ccc3ncc(-c4cn(CC(=O)O)nc4C#N)n3n2)ccc1F .
10 to 100 nM

Requested field: IC50. Item: COc1ccnc(-c2cnc3ccc(-c4cc(O[C@@H](C)Cn5cnnn5)ccn4)nn23)c1C#N
10 to 100 nM

Item COc1cc(F)cc(-c2cnc3ccc(-c4cncc(N[C@@H](C)Cn5cnnn5)c4)nn23)c1C#N has what recorded IC50?
< 10 nM

Data origin: patent US12528816B2
